Attribute: IC50
- target-or-test-system: recombinant SARS-CoV-2 3CL^pro (Severe acute respiratory syndrome coronavirus 2, UniProt P0DTD1)
- measurement-notes: biochemical
- Type: biochemical
- test-conditions: luminogenic substrate, 60 min; read-out: IC50 for inhibiting SARS-CoV-2 3CL^pro

Solved cases below.
compound	IC50
O=C(/C=C/c1ccc(O)c(O)c1)O[C@H](Cc1ccc(O)c(O)c1)C(=O)O	> 300 µM
O=C(O)[C@H]1O[C@@H](Oc2cc(O)c3c(=O)cc(-c4ccc(O)c(O)c4)oc3c2)[C@H](O)[C@@H](O)[C@@H]1O [Compound L7OG, luteolin-7-O-glucuronide]	170 µM
Nc1nc(=O)c2nc(CNc3ccc(C(=O)N[C@@H](CCC(=O)O)C(=O)O)cc3)cnc2[nH]1 [FA, folic acid, reference compound]	232 µM

input: # lookup: IC50 of O=C(/C=C/c1ccc(O)c(O)c1)O[C@@H]1C[C@@](OC(=O)/C=C/c2ccc(O)c(O)c2)(C(=O)O)C[C@@H](O)[C@@H]1O
output: > 300 µM

* * *

- target-or-test-system: recombinant SARS-CoV-2 3CL^pro (Severe acute respiratory syndrome coronavirus 2)
- measurement-notes: biochemical
- Type: biochemical
- test-conditions: judged from IC50 values
measure: inhibition of the enzymatic activity of 3CL^pro (in words)

molecule	observed-result
Nc1nc(=O)c2nc(CNc3ccc(C(=O)N[C@@H](CCC(=O)O)C(=O)O)cc3)cnc2[nH]1 [FA, folic acid, reference compound]	moderate inhibition
O=C(/C=C/c1ccc(O)c(O)c1)O[C@H](Cc1ccc(O)c(O)c1)C(=O)O [RA, rosmarinic acid]	no enzymatic inhibition
O=C(O)[C@H]1O[C@@H](Oc2cc(O)c3c(=O)cc(-c4ccc(O)c(O)c4)oc3c2)[C@H](O)[C@@H](O)[C@@H]1O [Compound L7OG, luteolin-7-O-glucuronide]	moderate inhibition
O=C(/C=C/c1ccc(O)c(O)c1)O[C@@H]1C[C@@](OC(=O)/C=C/c2ccc(O)c(O)c2)(C(=O)O)C[C@@H](O)[C@@H]1O [CY, 1,3-dicaffeoylquinic acid]	no enzymatic inhibition

* * *

- measurement-notes: in vitro
- Assay type: cell-based
- test-conditions: African green monkey; VERO cells, 72 h exposure, CCK-8; read-out: Cytotoxicity (CC50)
measure: CC50 at 72 h (µM)
Numbers only; they are read as µM.

compound	units-symbol	observed-result
Nc1nc(=O)c2nc(CNc3ccc(C(=O)N[C@@H](CCC(=O)O)C(=O)O)cc3)cnc2[nH]1 [FA, folic acid, reference compound]	µM	107
O=C(/C=C/c1ccc(O)c(O)c1)O[C@H](Cc1ccc(O)c(O)c1)C(=O)O	µM	78.3

input: Recorded CC50 at 72 h of O=C(/C=C/c1ccc(O)c(O)c1)O[C@@H]1C[C@@](OC(=O)/C=C/c2ccc(O)c(O)c2)(C(=O)O)C[C@@H](O)[C@@H]1O , please.
output: 91.5

input: Entry O=C(O)[C@H]1O[C@@H](Oc2cc(O)c3c(=O)cc(-c4ccc(O)c(O)c4)oc3c2)[C@H](O)[C@@H](O)[C@@H]1O [Compound L7OG, luteolin-7-O-glucuronide] : reported CC50 at 72 h = ?
output: 55.7

* * *

- target-or-test-system: recombinant SARS-CoV-2 PL^pro (GST-PL^pro) (Severe acute respiratory syndrome coronavirus 2)
- measurement-notes: SARS-CoV-2 PLpro luminescent assay
- test-conditions: luminogenic substrate, 60 min; read-out: IC50 for inhibiting SARS-CoV-2 PL^pro
The compounds listed here are annotated with their IC50.
Lab book: enter the figure in µM, no units written.

compound	IC50, µM
Nc1nc(=O)c2nc(CNc3ccc(C(=O)N[C@@H](CCC(=O)O)C(=O)O)cc3)cnc2[nH]1 [FA, folic acid, reference compound]	183

Lab note: next compound to report on.
input: // lookup IC50 for O=C(O)[C@H]1O[C@@H](Oc2cc(O)c3c(=O)cc(-c4ccc(O)c(O)c4)oc3c2)[C@H](O)[C@@H](O)[C@@H]1O [Compound L7OG, luteolin-7-O-glucuronide]
output: 153
